Assay: Luciferase activity of purified RLuc mutants (light output integrated over 10 s, luminometer)
Format: biochemical
Details: coelenterazine-n; relative to native enzyme
measuredEndpoint: Activity (relative to RLuc) n
Write no unit; give the number alone.

Prompt: I'd like to know its Activity (relative to RLuc) n. The molecule in question is C124A/M191L: RLuc mutant C124A/M191L (protein) MASKVYDPEQRKRMITGPQWWARCKQMNVLDSFINYYDSEKHAENAVIFLHGNAASSYLWRHVVPHIEPVARCIIPDLIGMGKSGKSGNGSYRLLDHYKYLTAWFELLNLPKKIIFVGHDWGAALAFHYSYEHQDKIKAIVHAESVVDVIESWDEWPDIEEDIALIKSEEGEKMVLENNFFVETMLPSKILRKLEPEEFAAYLEPFKEKGEVRRPTLSWPREIPLVKGGKPDVVQIVRNYNAYLRASDDLPKMFIESDPGFFSNAIVEGAKKFPNTEFVKVKGLHFSQEDAPDEMGKYIKSFVERVLKNEQ
Response: 1.0
